For each record, write down the corresponding half-life at 0.2 mg/ml.
# assay method text: Stability in aqueous media (PBS pH 7.4)
# Assay type: physicochemical
# Parameters: unit not given here
# run parameters: phosphate buffer solution (PBS); PBS pH 7.4, 37° C., samples at T=0, 4, 24, 96 h; read-out: Stability grading (t1/2)
Non-standard residues stand in square brackets, D forms with d. Residues, ends and D or L forms follow the SMILES beside them. *: point of attachment. d2Nal = N[C@H](Cc1ccc2ccccc2c1)C(=O)O; pGlu = O=C1CC[C@@H](C(=O)O)N1; tBu = CC(C)(C)*

Problem: Which half-life at 0.2 mg/ml reading was recorded for the molecule CCNC(=O)[C@@H]1CCCN1C(=O)[C@H](Cc1ccc(O)cc1)NC(=O)[C@H](Cc1c[nH]c2ccccc12)NC(=O)[C@@H](COC(C)(C)C)NC(=O)[C@H](Cc1c[nH]cn1)NC(=O)[C@H](CO)NC(=O)[C@H](Cc1c[nH]c2ccccc12)NC(=O)[C@H](Cc1c[nH]cn1)NC(=O)[C@@H]1CCC(=O)N1 [Compound 13] ([pGlu]HWSH[dS](tBu)WYP-NHEt) ?
Result: > 96

Problem: Same lookup for NC(=O)CNC(=O)[C@@H]1CCCN1C(=O)[C@H](Cc1ccc(O)cc1)NC(=O)[C@H](Cc1c[nH]c2ccccc12)NC(=O)[C@@H](Cc1ccc2ccccc2c1)NC(=O)[C@H](Cc1c[nH]cn1)NC(=O)[C@H](CO)NC(=O)[C@H](Cc1c[nH]c2ccccc12)NC(=O)[C@H](Cc1c[nH]cn1)NC(=O)[C@@H]1CCC(=O)N1 [Compound 33] ([pGlu]HWSH[d2Nal]WYPG-NH2) , please.
Result: < 96

Problem: Same lookup for CC(C)C[C@H](NC(=O)[C@@H](Cc1c[nH]c2ccccc12)NC(=O)[C@H](Cc1c[nH]cn1)NC(=O)[C@H](CO)NC(=O)[C@H](Cc1c[nH]c2ccccc12)NC(=O)[C@H](Cc1c[nH]cn1)NC(=O)[C@@H]1CCC(=O)N1)C(=O)N[C@@H](Cc1ccc(O)cc1)C(=O)N1CCC[C@H]1C(=O)NCC(N)=O [Compound 16] ([pGlu]HWSH[dW]LYPG-NH2) , please.
Result: > 96

Problem: Same lookup for N=C(N)NCCC[C@H](NC(=O)[C@H](Cc1c[nH]c2ccccc12)NC(=O)[C@@H](Cc1ccc2ccccc2c1)NC(=O)[C@H](Cc1ccc(O)cc1)NC(=O)[C@H](CO)NC(=O)[C@H](Cc1c[nH]c2ccccc12)NC(=O)[C@H](Cc1c[nH]cn1)NC(=O)[C@@H]1CCC(=O)N1)C(=O)N1CCC[C@H]1C(=O)NCC(N)=O [Compound 24] ([pGlu]HWSY[d2Nal]WRPG-NH2) , please.
Result: < 96

Problem: Same lookup for CCNC(=O)[C@@H]1CCCN1C(=O)[C@H](Cc1ccc(O)cc1)NC(=O)[C@H](Cc1c[nH]c2ccccc12)NC(=O)[C@@H](CC(C)C)NC(=O)[C@H](Cc1c[nH]cn1)NC(=O)[C@H](CO)NC(=O)[C@H](Cc1c[nH]c2ccccc12)NC(=O)[C@H](Cc1c[nH]cn1)NC(=O)[C@@H]1CCC(=O)N1 [Compound 50] ([pGlu]HWSH[dL]WYP-NHEt) , please.
Result: > 96

Problem: Same lookup for CCNC(=O)[C@@H]1CCCN1C(=O)[C@H](CCCNC(=N)N)NC(=O)[C@H](Cc1c[nH]c2ccccc12)NC(=O)[C@@H](COC(C)(C)C)NC(=O)[C@H](Cc1ccc(O)cc1)NC(=O)[C@H](CO)NC(=O)[C@H](Cc1c[nH]c2ccccc12)NC(=O)[C@H](Cc1c[nH]cn1)NC(=O)[C@@H]1CCC(=O)N1 [Compound 8] ([pGlu]HWSY[dS](tBu)WRP-NHEt) , please.
Result: > 96
